MEASURED ON: HDAC6 (Homo sapiens, UniProt Q9UBN7)
Sequence (Q9UBN7 1-1215): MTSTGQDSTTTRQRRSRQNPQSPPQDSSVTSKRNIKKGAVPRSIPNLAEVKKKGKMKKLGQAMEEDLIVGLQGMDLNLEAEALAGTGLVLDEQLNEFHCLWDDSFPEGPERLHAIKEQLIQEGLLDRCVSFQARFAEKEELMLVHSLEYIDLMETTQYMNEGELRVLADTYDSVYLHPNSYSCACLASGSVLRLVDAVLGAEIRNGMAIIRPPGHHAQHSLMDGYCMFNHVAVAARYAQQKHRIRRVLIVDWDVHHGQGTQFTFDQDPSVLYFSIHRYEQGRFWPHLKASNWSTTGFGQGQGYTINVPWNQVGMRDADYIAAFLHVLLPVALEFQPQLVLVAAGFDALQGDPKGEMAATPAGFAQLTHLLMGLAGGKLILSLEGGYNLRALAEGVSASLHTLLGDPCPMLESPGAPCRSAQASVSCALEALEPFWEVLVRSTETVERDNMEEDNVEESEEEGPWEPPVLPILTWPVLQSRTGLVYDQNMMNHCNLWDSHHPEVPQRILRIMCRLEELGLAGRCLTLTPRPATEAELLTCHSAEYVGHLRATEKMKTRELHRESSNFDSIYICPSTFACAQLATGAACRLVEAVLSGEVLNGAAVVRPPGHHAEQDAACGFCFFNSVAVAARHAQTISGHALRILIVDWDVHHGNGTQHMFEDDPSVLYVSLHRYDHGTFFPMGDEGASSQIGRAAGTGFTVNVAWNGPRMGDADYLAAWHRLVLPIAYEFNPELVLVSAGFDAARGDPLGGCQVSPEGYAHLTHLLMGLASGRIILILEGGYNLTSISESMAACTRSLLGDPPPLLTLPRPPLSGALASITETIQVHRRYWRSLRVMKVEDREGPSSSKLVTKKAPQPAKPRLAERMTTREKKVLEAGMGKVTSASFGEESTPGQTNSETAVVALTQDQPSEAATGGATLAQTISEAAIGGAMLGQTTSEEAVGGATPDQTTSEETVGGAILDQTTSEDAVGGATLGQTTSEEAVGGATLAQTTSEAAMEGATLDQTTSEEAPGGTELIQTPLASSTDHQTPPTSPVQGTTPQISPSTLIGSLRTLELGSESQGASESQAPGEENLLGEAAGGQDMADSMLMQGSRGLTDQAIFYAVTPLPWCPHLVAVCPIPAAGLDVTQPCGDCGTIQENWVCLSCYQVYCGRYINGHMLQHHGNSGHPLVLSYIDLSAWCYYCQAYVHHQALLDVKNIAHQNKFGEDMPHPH
METHOD: Human HDAC enzyme inhibitor Fluor-de-Lys assay, HDAC6
Format: biochemical
CONDITION: HDAC6, Fluor-de-Lys assay
ATTRIBUTE MEASURED: IC50

Some molecules with recorded IC50:
MOLECULE	IC50
CCC(=O)CCCCC[C@H](NCC1CN(C)C1)c1ncc(-c2cc3ccc(C)nc3cc2OC)o1	> 900 nM
CCC(=O)CCCCC[C@H](NC(=O)[C@H]1CC12CCN(CC1CC1)CC2)c1ncc(-c2cc3ccc(=O)n(C)c3cc2F)o1	> 900 nM
CCC(=O)CCCCC[C@H](NC(=O)C1=NOC2(CCN(C)CC2)C1)c1ncc(-c2ccc(-c3ccccn3)cc2OC)o1	> 900 nM
CCC(=O)CCCCC[C@H](NC(=O)[C@@H]1C[C@]12CCN(C)C2)c1ncc(-c2cc3ccccc3nc2OC)[nH]1	> 150 nM
CCC(=O)CCCCCC(N)(COC)c1ncc(-c2cc3ccc(C)nc3cc2OC)[nH]1 (centres unmarked)	> 900 nM
CCC(=O)CCCCC[C@H](NC(=O)C1CC12CCOCC2)c1ncc(-c2cc3ccc(C)nc3cc2OC)o1 (single isomer, unassigned) [Compound 410]	> 900 nM
CCC(=O)CCCCC[C@H](NC(=O)C1CC12CCN(CC)CC2)c1nc(-c2ccc(F)cc2)[nH]c1-c1cnn(C)c1 (some centres unmarked)	> 45000 nM

For the next question, use this molecule.
The recorded IC50 for CCC(=O)CCCCC[C@H](NC(=O)C1CC12CCOCC2)c1ncc(-c2cc3ccc(C)nc3cc2OC)[nH]1 (single isomer, unassigned) [Compound 407] is > 900 nM
